# Test system: conscious salt-loaded spontaneously hypertensive rats
# measurement-protocol: MAP in conscious salt-loaded SHR, daily oral gavage of drugs dissolved in DMSO
# Assay type: in vivo, rat
# experimental-context: mean vehicle-adjusted fall, 2 mL of 10 mmol/L daily oral gavage, DMSO, n=3
Measured Δ MAP Day 3 by item
Give the number; mmHg is assumed, so skip it.

Below, each entry is followed by its recorded Δ MAP Day 3 result.
smiles_record=CC1(C)CC(O)CC(C)(C)N1[O] unit_spec=mmHg measured_result=−2
smiles_record=CCCc1nc2c(C)cc(-c3nc4ccccc4n3C)cc2n1Cc1ccc(-c2ccccc2C(=O)OC2CC(C)(C)N([O])C(C)(C)C2)cc1 unit_spec=mmHg measured_result=−14
smiles_record=CCCc1nc2c(C)cc(-c3nc4ccccc4n3C)cc2n1Cc1ccc(-c2ccccc2C(=O)O)cc1 unit_spec=mmHg measured_result=−16

For the next question, use this compound.
What Δ MAP Day 3 value was documented for this compound, CCCc1nc2c(C)cc(-c3nc4ccccc4n3C)cc2n1Cc1ccc(-c2ccccc2C(=O)NC2CC(C)(C)N([O])C(C)(C)C2)cc1 ?
−14
